Reported Percentage decrease or increase of Nitric Oxide over baseline values for the following compounds.
- Tested on: patients with lung diseases including COPD
- assay comment: Comparison of inhaled salts of pyruvate, 5 ml of 0.5 mM solution (Table I)
- particulars: 5 ml of 0.5 mM solution, inhaled

query: Entry under review: CC(=O)N[C@@H](CS)C(=O)O [N-acetylcysteine, reference compound] . Reported Percentage decrease or increase of Nitric Oxide over baseline?
result: 0%

----------
Reported viability values for the following compounds.
- assay comment: Viable non-cancerous cells after incubation with anticancer drugs in various media (Table VIII)
- Type: cell-based
- Parameters: concentration or dose not given beside the values
- particulars: non-cancerous cells (normal peripheral blood monocytes), Drugs in commercial formula with sodium pyruvate without calcium & phosphate & magnesium; read-out: Percentage of viable non-cancerous cells
Hey, just the number and the unit after it is fine.

CN(Cc1cnc2nc(N)nc(N)c2n1)c1ccc(C(=O)N[C@@H](CCC(=O)O)C(=O)O)cc1 [methotrexate] ... 68%
CC(C)(C#N)c1cc(Cn2cncn2)cc(C(C)(C)C#N)c1 ... 50%

Please find the next compound below.
query: Entry under review: `O=c1[nH]c(=O)n([C@H]2C[C@H](O)[C@@H](CO)O2)cc1F` . Reported viability?
result: 58%

----------
- Tested on: patients with lung diseases including COPD
- assay comment: Comparison of inhaled salts of pyruvate, 5 ml of 5 mM solution (Table II)
- particulars: 5 ml of 5 mM solution, inhaled
attribute measured: Percentage Increase in SaO2 over baseline (%)
Respond with the bare value in %.

// below: answered compounds
CC(=O)C(=O)[O-].[Na+] [Sodium, sodium pyruvate] ... 1
CC(=O)N[C@@H](CS)C(=O)O [N-acetylcysteine, reference compound] ... 0

query: Entry under review: `CC(=O)C(=O)N[C@@H](CS)C(=O)O` . Reported Percentage Increase in SaO2 over baseline?
result: 0

----------
- assay comment: Viable non-cancerous cells after incubation with anticancer drugs in various media (Table VIII)
- Type: cell-based
- Set-up: concentration or dose not given beside the values
- particulars: non-cancerous cells (normal peripheral blood monocytes), Drugs in commercial formula with sodium pyruvate with calcium & phosphate & magnesium ions; read-out: Percentage of viable non-cancerous cells
attribute measured: viability (%)
Respond with the bare value in %.

// below: answered compounds
O=c1[nH]c(=O)n([C@H]2C[C@H](O)[C@@H](CO)O2)cc1F ... 92
CC(C)(C#N)c1cc(Cn2cncn2)cc(C(C)(C)C#N)c1 ... 86

Please find the next compound below.
query: Entry under review: CN(Cc1cnc2nc(N)nc(N)c2n1)c1ccc(C(=O)N[C@@H](CCC(=O)O)C(=O)O)cc1 [methotrexate] . Reported viability?
result: 94

----------
- Test system: patients with lung diseases including COPD
- assay comment: Comparison of inhaled salts of pyruvate, 5 ml of 5 mM solution (Table II)
- particulars: 5 ml of 5 mM solution, inhaled
attribute measured: Irritation

// below: answered compounds
CC(=O)C(=O)[O-].[Li+] [Lithium, lithium pyruvate] ... Yes
CC(=O)N[C@@H](CS)C(=O)O [N-acetylcysteine, reference compound] ... yes
CC(=O)C(=O)[O-].[K+] [Potassium, potassium pyruvate] ... None
CC(=O)C(=O)O.N [Ammonium, ammonium pyruvate] ... Yes

Please find the next compound below.
query: Entry under review: CC(=O)C(=O)[O-].[Na+] [Sodium, sodium pyruvate] . Reported Irritation?
result: none
